Target: T1, cMet-Fc fusion protein (extracellular domain of the cMet receptor expressed as an Fc-fusion protein) (human, UniProt P08581 25-932)
T1 construct: extracellular domain; also called soluble cMet-Fc-fusion protein; soluble cMet receptor; not shown: Fc part
T1 sequence (P08581 25-932): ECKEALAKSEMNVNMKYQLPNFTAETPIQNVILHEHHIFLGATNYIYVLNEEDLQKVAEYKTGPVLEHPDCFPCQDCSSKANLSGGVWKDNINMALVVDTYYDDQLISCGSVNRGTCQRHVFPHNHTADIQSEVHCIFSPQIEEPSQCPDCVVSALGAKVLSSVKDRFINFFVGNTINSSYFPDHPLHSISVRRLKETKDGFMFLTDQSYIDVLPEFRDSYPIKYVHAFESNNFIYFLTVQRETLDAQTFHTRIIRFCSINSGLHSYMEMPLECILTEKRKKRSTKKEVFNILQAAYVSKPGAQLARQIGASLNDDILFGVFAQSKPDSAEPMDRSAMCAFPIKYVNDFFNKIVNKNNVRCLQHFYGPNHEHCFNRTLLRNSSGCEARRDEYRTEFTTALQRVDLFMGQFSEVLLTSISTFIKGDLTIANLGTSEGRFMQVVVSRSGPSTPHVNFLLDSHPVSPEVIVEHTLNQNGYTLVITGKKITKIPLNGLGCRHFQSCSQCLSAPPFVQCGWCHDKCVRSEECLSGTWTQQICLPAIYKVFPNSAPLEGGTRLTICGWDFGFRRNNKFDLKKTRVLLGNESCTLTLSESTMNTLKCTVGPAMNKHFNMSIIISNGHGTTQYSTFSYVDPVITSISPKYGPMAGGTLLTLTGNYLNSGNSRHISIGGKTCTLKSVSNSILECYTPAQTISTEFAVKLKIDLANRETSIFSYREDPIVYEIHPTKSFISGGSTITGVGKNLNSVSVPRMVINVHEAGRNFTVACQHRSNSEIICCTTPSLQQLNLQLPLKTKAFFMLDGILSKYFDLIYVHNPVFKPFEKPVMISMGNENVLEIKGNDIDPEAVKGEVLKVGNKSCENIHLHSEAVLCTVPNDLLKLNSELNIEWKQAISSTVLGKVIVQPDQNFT
Assay: phage ELISA, cMet-Fc vs TRAIL-Fc
Experimental: Protein phage ELISAs using peptide-displaying phage isolates from the various selection campaigns were performed to determine specificity of the peptides for cMet versus an unrelated Fc-fusion protein (TRAIL-Fe). […] The plates were incubated for 2 hours at room temperature and washed with PBST. cMet-binding peptide-displaying phage were detected using an HRP-conjugated anti-M13 antibody.
Outcome label depends on Protein ELISA (fold over background) relative to 4 fold: at/above gives condition met, below gives condition not met.

Use the examples below as a reference point.
{"binder": "GSILYCINRNDPQCPYTAP [465-C10 peptide-displaying phage (SEQ ID NO: 101)]", "label": "condition not met"}
{"binder": "AQEWEREYFVDGFWGSWFGIPH [130-E10 peptide-displaying phage (SEQ ID NO: 472)]", "label": "condition not met"}

In: Check this binder for Protein ELISA (fold over background) at or above 4 fold: AGNYWCSGPPSFICHAVGT [549-D02 peptide-displaying phage (SEQ ID NO: 091)]
Out: condition met

In: Check this binder for Protein ELISA (fold over background) at or above 4 fold: AQAYEWWADESIFNHGYYWGHQ [94-B08 peptide-displaying phage (SEQ ID NO: 470)]
Out: condition not met

In: Check this binder for Protein ELISA (fold over background) at or above 4 fold: GSQNNCEYGSRGSSFCLAMAP [465-C06 peptide-displaying phage (SEQ ID NO: 377)]
Out: condition met

In: Check this binder for Protein ELISA (fold over background) at or above 4 fold: AGKQWCVVWEETCDQLGT [465-F10 peptide-displaying phage (SEQ ID NO: 039)]
Out: condition not met

In: Check this binder for Protein ELISA (fold over background) at or above 4 fold: AGETVCYWLNGWFCVDDGT [274-B07 peptide-displaying phage (SEQ ID NO: 073)]
Out: condition met

In: Check this binder for Protein ELISA (fold over background) at or above 4 fold: GDYRMCQISDMWGNYECSSDDP [548-G05 peptide-displaying phage (SEQ ID NO: 400)]
Out: condition met

In: Check this binder for Protein ELISA (fold over background) at or above 4 fold: ADAWMCEYFQWNCGDKGT [458-B05 peptide-displaying phage (SEQ ID NO: 046)]
Out: condition met

In: Check this binder for Protein ELISA (fold over background) at or above 4 fold: AGVIVCNLSMMYCLYPGT [499-C09 peptide-displaying phage (SEQ ID NO: 023)]
Out: condition not met

In: Check this binder for Protein ELISA (fold over background) at or above 4 fold: AQFSGLVMYGRTHEVQWTFGSM [94-G02 peptide-displaying phage (SEQ ID NO: 477)]
Out: condition not met

In: Check this binder for Protein ELISA (fold over background) at or above 4 fold: GSTMSCWRWGRDAYSCNQMAP [557-A12 peptide-displaying phage (SEQ ID NO: 372)]
Out: condition met

In: Check this binder for Protein ELISA (fold over background) at or above 4 fold: GDYDYCDFDLETYIPECHSYDP [546-G02 peptide-displaying phage (SEQ ID NO: 390)]
Out: condition met

In: Check this binder for Protein ELISA (fold over background) at or above 4 fold: AGSFACKGPPTFACVEFGT [330-B07 peptide-displaying phage (SEQ ID NO: 053)]
Out: condition met
